Numbers sourced from paper PMC7549214.

# procedure summary: Single dose pharmacokinetics in Balb/C mice
# Type: in vivo
# study conditions: male, mouse, plasma; normal Balb/C mice, oral, 50 mg/Kg
value type: Cmax (ng/mL)
Could you give me the number in ng/mL? Just the number is fine.

Record request: Cmax value, item `O=C(NO)c1ccc(Cn2cc(-c3ccc(CN4CCCC4)cc3)nn2)cc1` 184

---

# procedure summary: Repeated dose 14-day toxicokinetics (TK) study
# Type: in vivo, Sprague–Dawley rats
# study conditions: female, Sprague-Dawley, rat, in vivo, po, 100 mg/kg, female, day 1, 100 mg/kg bw
value type: Tmax (min)
# output: bare number, implied unit min

I am curious: what Tmax value has been reported for `O=C(NO)c1ccc(Cn2cc(-c3ccc(CN4CCCC4)cc3)nn2)cc1` ? 16.8

---

# procedure summary: Plasma protein binding
# Format: in vitro ADME
# study conditions: rat, read-out: Plasma protein binding (% bound)
value type: fraction unbound
Keep it simple and answer with nothing but the number.

Find the recorded fraction unbound belonging to `O=C(NO)c1ccc(Cn2cc(-c3ccc(CN4CCCC4)cc3)nn2)cc1` and report it. 0.581

---

# procedure summary: in vitro
# Format: in vitro ADME
# study conditions: rat, plasma
value type: remaining at 4 h (%)
Lab book: enter the figure in %, no units written.

Field request: remaining at 4 h | item: O=C(NO)c1ccc(Cn2cc(-c3ccc(CN4CCCC4)cc3)nn2)cc1 [FNDR-20123] 88.9

---

# tested on: hERG (Homo sapiens)
# Sequence (Q12809 whole entry): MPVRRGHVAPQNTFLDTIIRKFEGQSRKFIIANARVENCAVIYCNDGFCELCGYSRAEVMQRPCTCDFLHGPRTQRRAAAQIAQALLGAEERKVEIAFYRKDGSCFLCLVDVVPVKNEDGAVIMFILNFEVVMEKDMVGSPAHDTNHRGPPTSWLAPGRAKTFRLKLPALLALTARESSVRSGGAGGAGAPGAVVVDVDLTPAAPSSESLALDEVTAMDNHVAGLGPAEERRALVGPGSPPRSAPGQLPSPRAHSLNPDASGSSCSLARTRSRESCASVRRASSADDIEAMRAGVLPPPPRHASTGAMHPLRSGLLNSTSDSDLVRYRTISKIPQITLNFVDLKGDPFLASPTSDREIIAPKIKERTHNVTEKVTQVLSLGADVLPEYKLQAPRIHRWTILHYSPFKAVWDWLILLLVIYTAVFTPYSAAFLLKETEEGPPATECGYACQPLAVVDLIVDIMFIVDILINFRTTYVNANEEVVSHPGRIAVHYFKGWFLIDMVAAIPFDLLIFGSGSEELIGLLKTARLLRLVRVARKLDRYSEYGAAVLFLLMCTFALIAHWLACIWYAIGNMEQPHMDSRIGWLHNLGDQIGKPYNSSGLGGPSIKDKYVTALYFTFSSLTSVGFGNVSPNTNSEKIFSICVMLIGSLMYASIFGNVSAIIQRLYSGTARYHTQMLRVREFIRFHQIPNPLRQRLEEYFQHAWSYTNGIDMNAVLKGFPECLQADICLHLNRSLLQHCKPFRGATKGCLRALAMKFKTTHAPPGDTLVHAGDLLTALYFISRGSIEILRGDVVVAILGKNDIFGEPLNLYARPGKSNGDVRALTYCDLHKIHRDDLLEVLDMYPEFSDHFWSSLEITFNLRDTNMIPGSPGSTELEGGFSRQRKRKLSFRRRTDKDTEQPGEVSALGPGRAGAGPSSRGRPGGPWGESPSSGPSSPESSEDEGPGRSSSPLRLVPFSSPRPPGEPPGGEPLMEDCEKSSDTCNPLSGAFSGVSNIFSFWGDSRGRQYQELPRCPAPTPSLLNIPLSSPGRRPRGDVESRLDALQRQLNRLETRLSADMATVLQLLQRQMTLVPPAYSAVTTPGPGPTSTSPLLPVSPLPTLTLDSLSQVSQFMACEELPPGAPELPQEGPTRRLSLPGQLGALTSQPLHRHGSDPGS
value type: IC50

Could you share what IC50 was measured for `O=C(NO)c1ccc(Cn2cc(-c3ccc(CN4CCCC4)cc3)nn2)cc1` , tested on hERG (Homo sapiens)? > 100 µM
